Reported IC50 values for the following compounds.
- target: MRGPRX2 (Homo sapiens, UniProt Q96LB1)
- Sequence (Q96LB1 1-330): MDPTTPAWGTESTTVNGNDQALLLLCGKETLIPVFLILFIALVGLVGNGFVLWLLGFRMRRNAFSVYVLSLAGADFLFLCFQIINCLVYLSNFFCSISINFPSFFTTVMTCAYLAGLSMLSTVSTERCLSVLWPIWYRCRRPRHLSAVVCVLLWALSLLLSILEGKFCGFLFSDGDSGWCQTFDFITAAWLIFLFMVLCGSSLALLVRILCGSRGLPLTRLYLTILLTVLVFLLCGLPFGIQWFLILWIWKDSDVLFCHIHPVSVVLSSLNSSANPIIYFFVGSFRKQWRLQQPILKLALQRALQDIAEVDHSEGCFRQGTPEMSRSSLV
- assay_procedure: MRGPRX2 IP1 HTRF assay
- Assay type: cell-based
- Set-up: host or cells: CHO-K1
- setup_conditions: CHO-K1 cells stably expressing human MRGPRX2; IP1 accumulation; agonist Cortistatin 14 1 μM

These recorded examples may help you get a feel for the data.
| compound | target | IC50 |
| --- | --- | --- |
| [2H]C([2H])([2H])NC(=O)N1CC(CNc2cc(C(F)(F)F)nc3cc(C(F)(F)F)nn23)(c2ccc(F)cn2)C1 [Example 61] | MRGPRX2 (Homo sapiens, UniProt Q96LB1) | 0.0001 to 0.1 µM |
| COc1cc(NCC2(c3ccc(F)cc3)CN(S(N)(=O)=O)C2)n2nc(C(F)(F)F)cc2n1 [Example 106] | MRGPRX2 (Homo sapiens, UniProt Q96LB1) | 0.0001 to 0.1 µM |
| Cc1cc2nc(C(F)(F)F)cc(NCC3(c4ccccc4)CCNCC3)n2n1 [Example 8] | MRGPRX2 (Homo sapiens, UniProt Q96LB1) | 0.1 to 1 µM |
| CNC(=O)N1CC(CNc2cc(C(F)(F)F)nc3cc(C(F)(F)F)nn23)(n2cc(F)cn2)C1 [Example 41] | MRGPRX2 (Homo sapiens, UniProt Q96LB1) | 0.0001 to 0.1 µM |
| O=C(N[C@H]1CC[C@H](O)CC1)N1CC(CNc2cccc3nc(C(F)(F)F)cn23)(c2ccc(F)cc2)C1 [Example 102] | MRGPRX2 (Homo sapiens, UniProt Q96LB1) | 0.0001 to 0.1 µM |
| O=C(NC[C@H]1C[C@H](O)C1)N1CC(CNc2cc(C(F)(F)F)nc3cc(C(F)(F)F)nn23)(c2ccc(F)cc2)C1 [Example 92] | MRGPRX2 (Homo sapiens, UniProt Q96LB1) | 0.0001 to 0.1 µM |
| O=C(N[C@@H]1CC[C@@H](O)C1)N1CC(CNc2cc(C(F)(F)F)nc3cc(C(F)(F)F)nn23)(c2ccc(F)cc2)C1 [Example 53] | MRGPRX2 (Homo sapiens, UniProt Q96LB1) | 0.0001 to 0.1 µM |
| Cc1cc(NCC2(c3ccc(F)cc3)CN(C(N)=O)C2)n2nc(C(F)(F)F)cc2n1 [Example 67] | MRGPRX2 (Homo sapiens, UniProt Q96LB1) | 0.0001 to 0.1 µM |
| O=C(N[C@H]1CC[C@H](O)CC1)N1CC(CNc2cc(C(F)(F)F)nc3cc(C(F)(F)F)nn23)(c2ccc(F)c(F)c2)C1 [Example 100] | MRGPRX2 (Homo sapiens, UniProt Q96LB1) | 0.0001 to 0.1 µM |
| N#Cc1cc2nc(Cl)cc(NCC3(c4ccccc4)CCNCC3)n2n1 [Example 104] | MRGPRX2 (Homo sapiens, UniProt Q96LB1) | > 1 µM |

I have this compound here, C[C@]1(O)C[C@H](NC(=O)N2CC(CNc3cc(C(F)(F)F)nc4cc(C(F)(F)F)nn34)(c3ccc(F)cc3)C2)C1 [Example 91] , and I need its recorded IC50.
0.0001 to 0.1 µM

Any idea what its IC50 is? The compound is NC(=O)N1CC(CNc2cccc3nc(C(F)(F)F)nn23)(n2cc(F)cn2)C1 [Example 12]
0.1 to 1 µM

Give the measured IC50 of O=C(N[C@H]1CC[C@](O)(C(F)(F)F)CC1)N1CC(CNc2cc(C(F)(F)F)nc3cc(C(F)(F)F)nn23)(c2ccc(F)cc2)C1 [Example 54] .
0.0001 to 0.1 µM

Which value of IC50 has been reported for NC(=O)N1CCC(CNc2cc(C(F)(F)F)nc3cc(C(F)(F)F)nn23)(c2ccccc2)CC1 [Example 16] in the records?
0.0001 to 0.1 µM

Entry Nc1nc(N2CCC(CNc3cc(C(F)F)nc4cc(C(F)(F)F)nn34)(c3ccccc3)CC2)n[nH]1 [Example 42] has what IC50?
0.0001 to 0.1 µM

What value of measured IC50 is listed for NC(=O)N1CC(CNc2cc(C(F)(F)F)nc3cc(C(F)(F)F)nn23)(c2ccc(F)cc2)C1 [Example 31] ?
0.0001 to 0.1 µM

Item NS(=O)(=O)N1CC(CNc2cccc3nc(C(F)(F)F)nn23)(c2ccc(F)cc2)C1 [Example 32] has what recorded IC50?
0.0001 to 0.1 µM

For NS(=O)(=O)N1CCC(CNc2cc(C(F)(F)F)nc3cc(C(F)(F)F)nn23)(c2ccccc2)CC1 [Example 6] , what is its reported IC50?
0.0001 to 0.1 µM

Report IC50 for O=C(N[C@H]1CC[C@H](O)CC1)N1CC(CNc2cc(C(F)(F)F)nc3cc(C(F)F)nn23)(c2ccc(F)cc2)C1 [Example 98] please.
0.0001 to 0.1 µM

Name the recorded IC50 for [2H]C([2H])([2H])NC(=O)N1CC(CNc2cccc3nc(C(F)(F)F)cn23)(c2ccc(F)cc2)C1 [Example 101] .
0.0001 to 0.1 µM

Which IC50 value is on record for Cn1ccc(N2CC(CNc3cc(C(F)(F)F)nc4cc(C(F)(F)F)nn34)(c3ccc(F)cc3)C2)nc1=O [Example 90] ?
0.0001 to 0.1 µM

Quick one: IC50 of NC(=O)N1CCC(CNc2cc(Cl)nc3nc(C(F)(F)F)cn23)(c2ccccc2)CC1 [Example 1] ?
0.1 to 1 µM

Would you kindly share the measured IC50 for NC(=O)N1CCC(CNc2nccc3nc(C(F)(F)F)cn23)(c2ccccc2)CC1 [Example 2] ?
0.1 to 1 µM

Could you share which IC50 value was measured for Fc1ccc(C2(CNc3cccc4nc(C(F)(F)F)cn34)CCC2)cc1 [Example 36] ?
0.0001 to 0.1 µM

Param item = CNC(=O)N1CCC(CNc2cccc3nc(C(F)(F)F)cn23)(c2ccccc2)CC1 [Example 21] ; retrieve measured IC50.
0.0001 to 0.1 µM

I am curious: what IC50 value has been reported for COC(=O)N1CCC(CNc2cc(C(F)(F)F)nc3cc(C(F)(F)F)nn23)(c2ccccc2)CC1 [Example 14] ?
0.1 to 1 µM

###

- target: MRGPRX2 (Homo sapiens, UniProt Q96LB1)
- assay_procedure: MRGPRX2 IP1 HTRF assay
- Type: cell-based
- Set-up: host or cells: CHO-K1
- setup_conditions: CHO-K1 cells stably expressing human MRGPRX2; IP1 accumulation; agonist Cortistatin 14 1 μM
readout_name: IC50

Use the examples below as a reference point.
| compound | target | result |
| --- | --- | --- |
| O=C(N1CCC(CNc2cccc3nc(C(F)(F)F)cn23)(c2ccccc2)CC1)N1CC(F)(F)C1 [Example 19] | MRGPRX2 (Homo sapiens, UniProt Q96LB1) | 0.1 to 100 nM |
| NC(=O)N1CC(CNc2cc(C(F)(F)F)nc3cc(C(F)(F)F)nn23)(n2cc(F)cn2)C1 [Example 10] | MRGPRX2 (Homo sapiens, UniProt Q96LB1) | 0.1 to 100 nM |
| FC(F)(F)c1cn2c(NCC3(c4ccc(Br)cc4)CCC3)cccc2n1 [Example 38] | MRGPRX2 (Homo sapiens, UniProt Q96LB1) | 0.1 to 100 nM |
| [2H]C([2H])([2H])c1cc(NCC2(c3ccc(F)cc3)CN(C(=O)NCC(F)F)C2)n2nc(C(F)(F)F)cc2n1 [Example 110] | MRGPRX2 (Homo sapiens, UniProt Q96LB1) | 0.1 to 100 nM |

Look at this compound and give its reported IC50. NC(=O)N1CC(CNc2cc(C(F)(F)F)nc3cc(Cl)nn23)(c2ccc(F)cc2)C1 [Example 57]
0.1 to 100 nM

Quick one: IC50 for CNC(=O)N1CCC(CNc2cccc3nc(C(F)(F)C(F)(F)F)cn23)(c2ccccc2)CC1 [Example 26] ?
0.1 to 100 nM

Look at this compound and give its reported IC50. O=C(N[C@H]1CC[C@H](O)CC1)N1CC(CNc2cc(C(F)(F)F)nc3cc(C(F)(F)F)nn23)(c2ccc(F)cc2)C1 [Example 48]
0.1 to 100 nM

Fill blank: measured IC50 of the compound CNC(=O)N1CCC(CNc2cc(C(F)(F)F)nc3cc(C(F)(F)F)nn23)(c2ccccc2)CC1 [Example 15] is ____.
0.1 to 100 nM
